Could you please report measured inhibition at 10 µM for the items listed next?
target or test system: human GPR84 receptor (Homo sapiens, UniProt Q9NQS5)
Construct: host or cells: HEK293, transient transfection
Sequence (Q9NQS5 whole entry): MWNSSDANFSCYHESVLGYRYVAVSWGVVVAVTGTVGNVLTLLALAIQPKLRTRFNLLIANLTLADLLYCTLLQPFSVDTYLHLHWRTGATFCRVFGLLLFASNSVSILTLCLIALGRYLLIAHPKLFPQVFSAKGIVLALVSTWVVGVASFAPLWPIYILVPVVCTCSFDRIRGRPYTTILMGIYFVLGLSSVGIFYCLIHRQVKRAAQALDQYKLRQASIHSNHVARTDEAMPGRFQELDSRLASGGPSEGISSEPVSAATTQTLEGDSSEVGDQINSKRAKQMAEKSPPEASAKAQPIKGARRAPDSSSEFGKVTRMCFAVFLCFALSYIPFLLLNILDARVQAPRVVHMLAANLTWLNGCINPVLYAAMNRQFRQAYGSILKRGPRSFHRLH
assay remarks: Gαi biosensor BRET assay in HEK293 cells (antagonism of ZQ-16)
Assay type: cell-based
condition context: HEK293, single concentration 10 μM (designated F)

Examples with their reported inhibition at 10 µM follow.
CC(c1cc(C#CC2CC2)ccn1)c1cn(CC2CCCCO2)nn1 (stereo not shown) [Compound I-633] | 50 to 75%
COC1CCN(c2ccc(-c3cn(CC4CCCCO4)nn3)c(C)c2)CC1 (stereo not shown) [Compound I-437] | 25 to 50%
COc1cccc(N(C)c2cn(CC3OCC(C)(C)CO3)nn2)c1 [Compound I-812] | ≤ 25%

I would be grateful if you could provide inhibition at 10 µM for each of the following entries.
1. CN(C)c1cc(N2CC(C)(C)C2)ccc1-c1cn(CC2OCC(C)(C)CO2)nn1 [Compound I-585]
2. Cc1cc(C#CC2CC2)ccc1-c1cn(CC2CN(C)CCO2)nn1 (stereo not shown) [Compound I-181]
3. Cc1cc(N2CC(C)(F)C2)ccc1-c1cn(CC2CCCCO2)nn1 (stereo not shown) [Compound I-519]
4. CCc1cc(C#CCO)ccc1-c1cn(CC2OCC(C)(C)CO2)nn1 [Compound I-620]
5. Cc1cc(N2CCN(Cc3ccccn3)CC2)ccc1-c1cn(CC2CC(C)(C)CO2)nn1 (stereo not shown) [Compound I-530]
6. CN(C)c1cc(N2CC(C)(CO)C2)ccc1-c1cn(CC2CC3(CC3)CO2)nn1 (stereo not shown) [Compound I-707]
7. Cc1ccc(C#CCNc2ccccc2)cc1-c1cn(CC2CCCCO2)nn1 (stereo not shown) [Compound I-178]

Reply |
1. > 75%
2. ≤ 25%
3. 25 to 50%
4. > 75%
5. > 75%
6. > 75%
7. ≤ 25%

I would be grateful if you could provide inhibition at 10 µM for each of the following entries.
1. Cc1cc(N2CC(C)(C)C2)cnc1-c1cn(CC2OCC(C)(C)CO2)cn1 [Compound I-726]
2. Cc1cc(N2CCN(Cc3ccccn3)CC2)ccc1-c1cn(CC2OCC(F)(F)CO2)nn1 [Compound I-615]
3. CN(C)c1cc(N2CC(C)(CO)C2)c(F)cc1-c1cn(CC2OCC3(CCC3)O2)nn1 (stereo not shown) [Compound I-786]
4. Cc1cc(C#CCNC(=O)Oc2ccccc2)ccc1-c1cn(CC2CCCCO2)nn1 (stereo not shown) [Compound I-619]
5. Cc1cc(C#CC2CC2)ccc1-c1cn(Cc2cncn2C)nn1 [Compound I-528]
6. Cc1cc(C#CC2CC2)ccc1-c1cnn(CC2CCCCO2)c1C (stereo not shown) [Compound I-327]
7. C(#CC1CC1)c1ccc(-c2cn(CC3CCCCO3)nn2)c(N2CCC2)c1 (stereo not shown) [Compound I-199]
8. Cc1cc(C2CCN(Cc3ccccn3)CC2)cnc1-c1cn(CC2CCCCO2)nn1 (stereo not shown) [Compound I-482]

Reply |
> 75%
50 to 75%
> 75%
> 75%
≤ 25%
≤ 25%
≤ 25%
≤ 25%

I would be grateful if you could provide inhibition at 10 µM for each of the following entries.
1. Cc1cc(N2CCN(Cc3ccccn3)CC2)ccc1-c1cn(C[C@@H]2CCC(F)(F)CO2)nn1 (stereo in doubt) [Compound I-636]
2. Cc1cc(OCC(F)(F)F)cnc1-c1cn(CC2OCC(C)(C)O2)nn1 (stereo not shown) [Compound I-639]
3. Cc1cc(C#CC2CC2)ccc1-c1cn(CC2CCCCS2(=O)=O)nn1 (stereo not shown) [Compound I-248]

Reply |
1: > 75%; 2: ≤ 25%; 3: ≤ 25%

I would be grateful if you could provide inhibition at 10 µM for each of the following entries.
1. CN(C)c1cc(N2CC(C)(CO)C2)ccc1-c1cn(CC2OCC(C)(C)CO2)nn1 [Compound I-654]
2. Cc1cc(N2CCN(C(=O)c3ccccn3)CC2)ccc1-c1cn(CC2CCCCO2)nn1 (stereo not shown) [Compound I-534]
3. CCc1ccc(C#CC2CC2)cc1-c1cn(CC2CCCCO2)nn1 (stereo not shown) [Compound I-160]
4. COCC1(C)CN(c2ccc(-c3cn(CC4CCCCO4)nn3)c(C)c2)C1 (stereo not shown) [Compound I-439]
5. COC(c1cn(CC2CCCCO2)nn1)c1cc(C#CC2CC2)c(F)cc1C (stereo not shown) [Compound I-688]
6. Cc1cc(N2CCC3(CC2)CN(C)C3)ccc1-c1cn(CC2CCCCO2)nn1 (stereo not shown) [Compound I-172]

Reply |
> 75%
≤ 25%
> 75%
25 to 50%
> 75%
≤ 25%
